# TARGET_SYSTEM: T1, HLA-DR13 (DRB1*1301), purified (human)
# T1 chain 1: not shown
# T1 chain 2: not shown
# METHOD_NOTES: competition on purified HLA-DR (DRB1*1301) against biotinylated B1 21-36 (200 nM, pH 4.5); fluorescence assay
OBSERVATION_TYPE: IC50 (nM)
Return type: number; implicit unit nM.

Quick one: IC50 of TERVRLVTRHIYNREE (modifications not checked) [B1 21-36 (…), unlabeled reference peptide] ?
390
